Number of dead mice for 7 days by entry:
test system: ICR mice; assay: Acute toxicity test; format: in vivo; settings: male, 71.4 mg/kg i.p.
PARAMETER: Number of dead mice for 7 days

{"columns": ["MOLECULE", "SYSTEM_TESTED", "RECORDED_VALUE"],
 "data": [
  ["CC1[O][Pt][O]C1=O.CCC1OC(CN)C(CN)O1 (stereo not shown) [Example 18]", "ICR mice", "5/6"],
  ["NC[C@H]1OC2(CCCC2)O[C@@H]1CN.O=C1C[O][Pt][O]1 [Example 3]", "ICR mice", "6/6"],
  ["CCC1O[C@H](CN)[C@@H](CN)O1.O=C1C[O][Pt][O]1 [Example 6]", "ICR mice", "6/6"],
  ["CC1[O][Pt][O]C1=O.NCC1OC2(CCCC2)OC1CN (stereo not shown) [Example 15]", "ICR mice", "5/6"],
  ["CC(C)C1O[C@H](CN)[C@@H](CN)O1.O=C1C[O][Pt][O]1 [Example 7]", "ICR mice", "4/6"],
  ["CCC1(CC)OC2C[NH2+][Pt-2]3([NH2+]CC2O1)[O]CC(=O)[O]3 (stereo not shown) [Example 8]", "ICR mice", "5/6"],
  ["CC(C)C1OC(CN)C(CN)O1.CC1[O][Pt][O]C1=O (stereo not shown) [Example 19]", "ICR mice", "5/6"],
  ["CCC1(C)OC2C[NH2+][Pt-2]3([NH2+]CC2O1)[O]CC(=O)[O]3 (stereo not shown) [Example 9]", "ICR mice", "5/6"],
  ["NC[C@H]1OC2(CCCCC2)O[C@@H]1CN.O=C1C[O][Pt][O]1 [Example 4]", "ICR mice", "4/6"],
  ["CC1(C)O[C@H](CN)[C@@H](CN)O1.O=C1C[O][Pt][O]1 [Example 2]", "ICR mice", "6/6"]
]}

* * *

test system: ICR mice; assay: Acute toxicity test; format: in vivo; settings: male, 54.9 mg/kg i.p.
Number of dead mice, 4th day by entry:

{"columns": ["MOLECULE", "SYSTEM_TESTED", "Number of dead mice, 4th day"],
 "data": [
  ["CC1[O][Pt][O]C1=O.CCC1OC(CN)C(CN)O1 (stereo not shown)", "ICR mice", "1/4"],
  ["CC(C)C1OC(CN)C(CN)O1.CC1[O][Pt][O]C1=O (stereo not shown)", "ICR mice", "1/6"],
  ["CCC1(C)OC2C[NH2+][Pt-2]3([NH2+]CC2O1)[O]CC(=O)[O]3 (stereo not shown)", "ICR mice", "2/6"],
  ["CCC1(CC)OC2C[NH2+][Pt-2]3([NH2+]CC2O1)[O]CC(=O)[O]3 (stereo not shown)", "ICR mice", "2/4"]
]}

* * *

Number of dead mice, 3rd day by entry:
System: ICR mice
Experiment: Acute toxicity test
Type: in vivo
Details: female, 71.4 mg/kg i.p.
Procedure: 7-week-old ICR mice(male: 34±2 g; female: 31±2 g) were fed with solid food and water under the condition of 23±1° C. temperature and 65±5% humidity before the test. Each treatment group consisted of 6 mice. The test compounds were administered intraperitoneally. For 7 days after the administration, the appearance and the fate of the tested animals were recorded. The dead animals were subjected to autopsy and their visible pathological changes were observed. […]

{"columns": ["COMPOUND", "Number of dead mice, 3rd day"],
 "data": [
  ["NC[C@H]1OC2(CCCCC2)O[C@@H]1CN.O=C1C[O][Pt][O]1 [Example 4]", "1/4"],
  ["CC1(C)O[C@H](CN)[C@@H](CN)O1.O=C1C[O][Pt][O]1 [Example 2]", "4/6"],
  ["CCC1O[C@H](CN)[C@@H](CN)O1.O=C1C[O][Pt][O]1 [Example 6]", "4/6"],
  ["CCC1(C)OC2C[NH2+][Pt-2]3([NH2+]CC2O1)[O]CC(=O)[O]3 (stereo not drawn) [Example 9]", "1/6"],
  ["NC[C@H]1OC2(CCCC2)O[C@@H]1CN.O=C1C[O][Pt][O]1 [Example 3]", "4/6"],
  ["CC(C)C1O[C@H](CN)[C@@H](CN)O1.O=C1C[O][Pt][O]1 [Example 7]", "3/6"]
]}
